# measurement-description: Pharmacokinetic/toxicokinetic evaluation in rats
# Type: in vivo
# measurement-parameters: female, rat, plasma, iv, […], female, Dose 5, […] IV once daily, read-out: T1/2 (converted)
measured-attribute: half-life (h)

CN1CCCC1CCNC(=O)c1cn2c3c(c(N4CCC(c5cnccn5)C4)c(F)cc3c1=O)Oc1cc3ccccc3cc1-2 (stereo not shown) = 4.8

* * *

# test-system: c-Myc template DNA (c-myc quadruplex)
# measurement-description: Quadruplex binding / stop assay (Taq polymerase arrest, capillary electrophoresis)
# measurement-parameters: read-out: S DATA; Table 1D, stop assay data
Measured IC50 accompanies every entry in the list below.
measured-attribute: IC50 (µM)

C[C@H](O)CNc1c(F)cc2c(=O)c(C(=O)NCCC3CCCN3C)cn3c2c1Oc1cc2ccccc2cc1-3 (stereo partly shown) = 1.75
CN1CCCC1CCNC(=O)c1cn2c3c(c(N(C)C4CCNC4)c(F)cc3c1=O)Oc1cc3ccccc3cc1-2 (stereo not shown) = 0.75
CN1CCCC1CCNC(=O)c1cn2c3c(c([S+]([O-])CCc4cnccn4)c(F)cc3c1=O)Oc1cc3ccccc3cc1-2 (stereo not shown) = 10

* * *

# test-system: c-Myc template DNA (c-myc quadruplex)
# measurement-description: Quadruplex binding / stop assay (Taq polymerase arrest, capillary electrophoresis)
# measurement-parameters: read-out: S DATA; Table 1D, stop assay data
pIC50: −log10 of the molar value.
Measured pIC50 accompanies every entry in the list below.
measured-attribute: pIC50

CN1CCCC1CCNC(=O)c1cn2c3c(c(N4CCC(c5ccccc5F)C4)c(F)cc3c1=O)Oc1cc3ccccc3cc1-2 (stereo not drawn) = 5.00
CC1CCCCN1CCCNc1c(F)cc2c(=O)c(C(=O)NCCC3CCCN3C)cn3c2c1Oc1cc2ccccc2cc1-3 (stereo not drawn) = 6.02
CN(C)c1cccc(CNc2c(F)cc3c(=O)c(C(=O)NCCC4CCCN4C)cn4c3c2Oc2cc3ccccc3cc2-4)c1 (stereo not drawn) = 6.12
CN1CCC[C@H]1CCNC(=O)c1cn2c3c(c(SCCc4cnccn4)c(F)cc3c1=O)Oc1cc3ccccc3cc1-2 = 5.33
CN1CCCC1CCNC(=O)c1cn2c3c(c(NCC(O)c4ccccc4)c(F)cc3c1=O)Oc1cc3ccccc3cc1-2 (stereo not drawn) = 6.12
CN1CCC[C@H]1CCNC(=O)c1cn2c3c(c(N4CCC(c5cnccn5)C4)c(F)cc3c1=O)Oc1ccccc1-2 (stereo partly drawn) = 5.24
CN(C)CCCCNC(=O)c1cn2c3c(c(NCCCN4CCN(C)CC4)ccc3c1=O)Oc1cc3ccccc3cc1-2 = 6.12
CN1CCCC1CCNC(=O)c1cn2c3c(c(NCC4CCN(C(=O)OC(C)(C)C)C4)c(F)cc3c1=O)Oc1cc3ccccc3cc1-2 (stereo not drawn) = 6.12
CN1CCCC1CCNC(=O)c1cn2c3c(c(NC[C@H]4CCCO4)c(F)cc3c1=O)Oc1cc3ccccc3cc1-2 (stereo partly drawn) [compound 1736] = 5.52
CN1CCCC1CCNC(=O)c1cn2c3c(c(NCCCN4CCOCC4)ccc3c1=O)Oc1cc3ccccc3cc1-2 (stereo not drawn) = 5.76
CC1(C)CC(NC(=O)c2cn3c4c(c(NCCN5CCCC5)ccc4c2=O)Oc2cc4ccccc4cc2-3)CC(C)(C)N1 = 6.12

* * *

Measured pIC50 accompanies every entry in the list below.
# System: HeLa cells
# measurement-description: MTS cell proliferation and/or cytotoxicity assay
# Format: cell-based, Human
# measurement-parameters: concentration at which 50% of antiproliferative cell response is seen; 3 days incubation; read-out: MTS Data Hella
pIC50: −log10 of the molar value.
measured-attribute: pIC50

CN1CCCC1CCNC(=O)c1cn2c3c(c(NC[C@@H]4CCCO4)c(F)cc3c1=O)Oc1cc3ccccc3cc1-2 (stereo partly shown) [compound 26] = 6.14
CN1CCCC1CCNC(=O)c1cn2c3c(c(N4CCC(N)C4)c(F)cc3c1=O)Oc1cc3ccccc3cc1-2 (stereo not shown) [compound 472] = 5.48
N[C@H]1CCN(c2c(F)cc3c(=O)c(C(=O)NCCN4CCCC4)cn4c3c2Oc2ccccc2-4)C1 [compound 35] = 6.68
O=C(NCCN1CCCC1)c1cn2c3c(c(N4CC5CCCNC5C4)c(F)cc3c1=O)Oc1cc3ccccc3cc1-2 (stereo not shown) [compound 581] = 6.52
CN1CCCC1CCNC(=O)c1cn2c3c(c(NC[C@H]4CCCO4)c(F)cc3c1=O)Oc1cc3ccccc3cc1-2 (stereo partly shown) [compound 38] = 6.59
CN1CCCC1CCNC(=O)c1cn2c3c(c(N4CCC(N)C4)c(F)cc3c1=O)Oc1cc3ccccc3cc1-2 (stereo not shown) [compound 540] = 6.57
CN1CCCC1CCNC(=O)c1cn2c3c(c(NC[C@@H]4CCCO4)c(F)cc3c1=O)Oc1cc3ccccc3cc1-2 (stereo partly shown) [compound 33] = 6.54
